System: Hyperlipidemic Hamster
assay.explanation: In Vivo Assay of Hypolipidemic Agents Using the Hyperlipidemic Hamster
experimental.parameters: Mesocricetus auratus, po, 168 h, 50 mg/kg once daily oral, 7 days; percent change versus control, negative = lowering; read-out: % Reduction (in vivo) Cholest. Esters
Threshold check on change in vivo at 50 mg/kg: strictly below -30% is T; on or above -30% is F.

# molecule, measured.on, group
measured = [
    ("COc1ccc([C@@H]2[C@@H](CCCc3ccc(N)cc3)C(=O)N2c2ccc(OC)cc2)cc1 (relative stereo)", "Hyperlipidemic Hamster", "T"),
    ("COc1ccc([C@@H]2[C@@H](CCOc3ccccc3)C(=O)N2c2ccc(OC)cc2)cc1 (relative stereo)", "Hyperlipidemic Hamster", "T"),
    ("CCCCCCCCCCC1C(=O)N(c2c(OC)cc(OC)cc2OC)C1c1ccccc1 (stereo not shown)", "Hyperlipidemic Hamster", "F"),
    ("COc1ccc(N2C(=O)[C@H](CCCc3ccccc3)[C@@H]2c2ccc(OC)c(C)c2)cc1 (relative stereo)", "Hyperlipidemic Hamster", "F"),
    ("CC[C@@]1(CCCc2ccccc2)C(=O)N(c2ccc(OC)cc2)[C@H]1C=Cc1ccccc1 (relative stereo)", "Hyperlipidemic Hamster", "F"),
    ("COCc1ccc([C@@H]2[C@@H](CCCc3ccccc3)C(=O)N2c2ccc(OC)cc2)cc1 (relative stereo)", "Hyperlipidemic Hamster", "T"),
    ("COc1ccc(N2C(=O)[C@H](CCCc3ccccc3)[C@@H]2c2ccc(Oc3ccccc3)cc2)cc1 (relative stereo)", "Hyperlipidemic Hamster", "T"),
]
